Molecular target: UniProt O42713
Sequence (O42713 whole entry): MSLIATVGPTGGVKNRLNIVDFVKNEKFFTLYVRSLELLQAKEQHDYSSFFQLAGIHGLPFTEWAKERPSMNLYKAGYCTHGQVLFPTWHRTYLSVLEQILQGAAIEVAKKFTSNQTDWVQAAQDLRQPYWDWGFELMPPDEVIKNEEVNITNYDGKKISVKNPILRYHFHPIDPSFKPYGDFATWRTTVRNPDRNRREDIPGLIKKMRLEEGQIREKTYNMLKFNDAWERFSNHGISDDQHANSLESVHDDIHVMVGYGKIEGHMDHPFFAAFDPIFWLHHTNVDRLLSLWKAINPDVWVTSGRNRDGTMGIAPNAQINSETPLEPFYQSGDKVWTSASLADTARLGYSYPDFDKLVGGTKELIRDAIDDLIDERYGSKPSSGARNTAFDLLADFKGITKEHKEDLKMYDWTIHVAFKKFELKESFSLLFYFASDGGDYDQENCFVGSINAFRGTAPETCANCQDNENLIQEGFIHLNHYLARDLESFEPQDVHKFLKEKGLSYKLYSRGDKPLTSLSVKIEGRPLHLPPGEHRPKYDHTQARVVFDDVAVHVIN

chemicalString: CCOC(=O)[C@H](Cc1ccccc1)NC(=O)/C=C/c1ccc(O)c(O)c1
experimentalTarget: UniProt O42713
IC50: > 29 µM
